Assay: Half life in mouse at 10 to 100 mg/kg, ip
Format: ADME, organism-based
Parameters: dose 10-100 mg/kg, route intraperitoneal
Details: in vivo
experimentalReadout: half-life (min)

                                   molecule  recordedmeasurement
0  COc1c(N2CCNC(C)C2)c(F)cc2c(=O)c(C(=O)O)cn(C3CC3)c12 (stereo unspecified) [GATIFLOXACIN]                   36

This collection of values is drawn from ChEMBL document CHEMBL1151423.
